Would you mind telling me the reported GI50 of each entry?
- System: UO-31
- experimental.details: NCI tumour cell line growth inhibition, 48 h
Active and inactive are the calls of the source. Cut-off read from the data, not from the text of the source: active = GI50 up to about 1.1 µM and inactive = higher.

Kindly note the recorded GI50 for "Nc1nc(=O)[nH]c2c1cnn2COCCO" , which is > 100 µM (inactive)

Kindly note the recorded GI50 for "O=C(O)c1ccc(Oc2nc3ccccc3s2)cc1" , which is > 100 µM (inactive)

Kindly note the recorded GI50 for "O=C(NC1CCN(Cc2ccccc2)CC1)c1ccccc1I" , which is 15.8 µM (inactive)

Kindly note the recorded GI50 for "C=CCN(CCN(CC=C)S(=O)(=O)c1ccc(C)cc1)S(=O)(=O)c1ccc(C)cc1" , which is > 100 µM (inactive)

Kindly note the recorded GI50 for "C[N+]1=C(c2cccnc2/C=N/O)OCC1(C)C" , which is > 100 µM (inactive)

Kindly note the recorded GI50 for "CN1CCN(CCCCN2c3ccccc3Sc3ccc(N=[N+]=[N-])cc32)CC1" , which is 7.57 µM (inactive)

Kindly note the recorded GI50 for "CCOC(=O)NC(Nc1ccc(C(=O)OCC)cc1)(C(F)(F)F)C(F)(F)F" , which is 42.5 µM (inactive)

Kindly note the recorded GI50 for COC(=O)CC1C[C@H](C#N)N(C(=O)c2ccccc2)C[C@@H]1CC[N+](=O)[O-] (stereo partly specified) , which is > 100 µM (inactive)

Kindly note the recorded GI50 for "COc1ccccc1Nc1nc(N)nc(N)c1N" , which is > 100 µM (inactive)

Kindly note the recorded GI50 for COc1cc(C2SCC(=O)N2c2ccc(Cl)c(Cl)c2)cc(OC)c1OC (stereo unspecified) , which is 18.9 µM (inactive)

Kindly note the recorded GI50 for "CCOC(=O)c1nnsc1NC(=O)Nc1ccc(Cl)cc1" , which is 31.1 µM (inactive)
